Modal MIC90 by entry:
# System: C. albicans NCPF 3281
# EXPERIMENTAL DETAILS: microbe, parasite or virus in culture
# Assay type: cell-based
# CONDITION NOTES: NCPF 3281, 20 h
Where a SMILES comes first, the peptide text is derived from it.

INSERT INTO assay_data (compound, attribute_measured, endpoint_value) VALUES
  ('CC(C)C[C@H](NC(=O)CNC(=O)[C@H](Cc1ccccc1)NC(=O)[C@H](CCCCN)NC(=O)[C@H](Cc1ccccc1)NC(=O)[C@H](C)NC(=O)[C@@H](N)CCCCN)C(=O)N[C@@H](CCCCN)C(=O)N[C@H](C(=O)N[C@H](C(N)=O)C(C)C)[C@@H](C)O [CPF-MW-10a] (H-KAFKFGLKTV-NH2)', 'Modal MIC90', '> 110.8 µM'),
  ('CC[C@H](C)[C@H](NC(=O)[C@H](CCCCN)NC(=O)[C@H](CC(C)C)NC(=O)CNC(=O)[C@H](C)NC(=O)[C@H](CCCCN)NC(=O)[C@H](CC(C)C)NC(=O)[C@H](C)NC(=O)[C@H](CCCCN)NC(=O)CNC(=O)[C@H](CC(C)C)NC(=O)[C@@H](N)Cc1ccccc1)C(=O)NCC(=O)N[C@@H](CO)C(=O)N[C@@H](Cc1c[nH]cn1)C(=O)N[C@@H](CC(C)C)C(N)=O [CPF-P2a] (H-FLGKALKAGLKIGSHL-NH2)', 'Modal MIC90', '> 74 µM');

Continue with the compound presented below.
State, for C. albicans NCPF 3281, measured Modal MIC90 of the compound listed here: CC[C@H](C)[C@H](NC(=O)[C@@H](N)CCCCN)C(=O)N[C@@H](C)C(=O)N[C@@H](CCCCN)C(=O)N[C@H](C(=O)N[C@@H](C)C(=O)N[C@@H](CC(C)C)C(=O)N[C@@H](CCCCN)C(=O)N[C@@H](C)C(=O)N[C@@H](CC(C)C)C(N)=O)C(C)C [DRAMP02273a] (H-KIAKVALKAL-NH2)
> 117.5 µM

###

# Test system: S. aureus (MRSA) NCTC 13616
# EXPERIMENTAL DETAILS: microbe, parasite or virus in culture
# Format: cell-based, Staphylococcus aureus
# CONDITION NOTES: S. aureus (MRSA) NCTC 13616 (R); shown in µM
Where a SMILES comes first, the peptide text is derived from it.
ATTRIBUTE MEASURED: Modal MIC

INSERT INTO assay_data (compound, measurement_target, attribute_measured, endpoint_value) VALUES
  ('CC[C@H](C)[C@H](NC(=O)[C@H](C)NC(=O)CNC(=O)[C@H](C)NC(=O)[C@H](CCCCN)NC(=O)[C@H](CO)NC(=O)[C@H](C)NC(=O)[C@H](CCSC)NC(=O)CN)C(=O)N[C@@H](C)C(=O)NCC(=O)N[C@@H](CCCCN)C(=O)N[C@H](C(=O)N[C@@H](C)C(=O)N[C@@H](CCCCN)C(=O)N[C@H](C(=O)N[C@@H](C)C(=O)N[C@@H](CC(C)C)C(=O)N[C@@H](CCCCN)C(=O)N[C@@H](C)C(=O)N[C@@H](CC(C)C)C(N)=O)C(C)C)[C@@H](C)CC [DRAMP02272a] (H-GMASKAGAIAGKIAKVALKAL-NH2)', 'S. aureus (MRSA) NCTC 13616', 'Modal MIC', '8 µM');

Continue with the compound presented below.
Check the records and state Modal MIC for CC[C@H](C)[C@H](NC(=O)[C@H](CCCCN)NC(=O)[C@H](CC(C)C)NC(=O)[C@H](C)NC(=O)[C@H](C)NC(=O)[C@H](CCCCN)NC(=O)[C@H](CC(C)C)NC(=O)[C@H](C)NC(=O)[C@@H](N)CCCCN)C(=O)NCC(N)=O [CPF-P3-10a] (H-KALKAALKIG-NH2)
> 122 µM

###

# Test system: C. glabrata NCPF 8018
# EXPERIMENTAL DETAILS: microbe, parasite or virus in culture
# Format: cell-based
# CONDITION NOTES: C. glabrata NCPF 8018; 90% growth inhibition; RPMI 1640 + 2% glucose, 37 °C, 20 h
Where a SMILES comes first, the peptide text is derived from it.
ATTRIBUTE MEASURED: Modal MIC90

INSERT INTO assay_data (compound, measurement_target, endpoint_value) VALUES
  ('CC(C)C[C@H](NC(=O)[C@H](CCCCN)NC(=O)[C@H](CO)NC(=O)[C@H](CCCCN)NC(=O)[C@H](Cc1c[nH]c2ccccc12)NC(=O)[C@H](C)NC(=O)[C@H](CCCCN)NC(=O)[C@H](CCCCN)NC(=O)[C@H](CC(C)C)NC(=O)[C@H](Cc1ccccc1)NC(=O)[C@H](CO)NC(=O)CN)C(=O)N[C@@H](C)C(=O)N[C@@H](CCCCN)C(=O)N[C@@H](CCCCN)C(=O)N[C@@H](CC(C)C)C(=O)N[C@@H](CCCNC(=N)N)C(=O)N[C@@H](C)C(=O)N[C@@H](CCCCN)C(=O)NCC(N)=O [PS-PB-20a] (H-GSFLKKAWKSKLAKKLRAKG-NH2)', 'C. glabrata NCPF 8018', '> 128 µg/mL');

Check the records and state Modal MIC90 for C[C@H](NC(=O)CNC(=O)[C@H](CCCCN)NC(=O)[C@@H](N)CS)C(=O)N[C@@H](Cc1ccccc1)C(=O)N[C@@H](CCCCN)C(=O)N[C@@H](CCC(N)=O)C(=O)N[C@H](C(=O)N[C@@H](CS)C(=O)N[C@@H](CCCCN)C(=O)N[C@@H](CS)C(=O)N[C@@H](Cc1ccc(O)cc1)C(N)=O)[C@@H](C)O [Os(11-22)a] (H-CKGAFKQTCKCY-NH2; N-terminus assumed)
> 128 µg/mL

###

# Tested on: C. auris TDG 1912
# EXPERIMENTAL DETAILS: microbe, parasite or virus in culture
# Assay type: cell-based, Candida auris
# CONDITION NOTES: C. auris TDG 1912; shown in µM
Where a SMILES comes first, the peptide text is derived from it.
ATTRIBUTE MEASURED: Modal MIC50

Worked examples follow.
INSERT INTO measurements (molecule, attribute_measured, endpoint_value) VALUES
  ('CC[C@H](C)[C@H](NC(=O)[C@H](CCCCN)NC(=O)[C@H](CCC(=O)O)NC(=O)[C@H](Cc1c[nH]c2ccccc12)NC(=O)[C@H](Cc1ccccc1)NC(=O)[C@H](CCCCN)NC(=O)CNC(=O)[C@H](CC(C)C)NC(=O)[C@H](C)N)C(=O)N[C@@H](CCCCN)C(=O)N[C@@H](CO)C(=O)N[C@@H](CC(C)C)C(=O)N[C@@H](Cc1ccccc1)C(N)=O [A1F5K8-IsCTa] (H-ALGKFWEKIKSLF-NH2)', 'Modal MIC50', '> 79.9 µM'),
  ('CC[C@H](C)[C@H](NC(=O)[C@H](CCCCN)NC(=O)[C@H](CC(C)C)NC(=O)[C@H](C)NC(=O)[C@H](C)NC(=O)[C@H](CCCCN)NC(=O)[C@H](CC(C)C)NC(=O)[C@H](C)NC(=O)[C@@H](N)CCCCN)C(=O)NCC(=O)N[C@@H](C)C(=O)N[C@@H](CC(N)=O)C(N)=O [CPF-P3-12a] (H-KALKAALKIGAN-NH2)', 'Modal MIC50', '> 103.8 µM');

State, for C. auris TDG 1912, measured Modal MIC50 of the molecule listed here: CC[C@H](C)[C@H](NC(=O)[C@H](Cc1c[nH]c2ccccc12)NC(=O)[C@H](CC(=O)O)NC(=O)[C@H](Cc1c[nH]c2ccccc12)NC(=O)[C@@H](NC(=O)[C@H](CCCCN)NC(=O)CN)C(C)C)C(=O)N[C@@H](CCCCN)C(=O)N[C@@H](CO)C(=O)N[C@H](C(=O)N[C@@H](C)C(=O)N[C@@H](CCCCN)C(=O)N[C@@H](CCCCN)C(=O)N[C@@H](CC(C)C)C(=O)N[C@@H](Cc1c[nH]c2ccccc12)C(=O)N[C@@H](CC(N)=O)C(N)=O)[C@@H](C)O [Opis16a] (H-GKVWDWIKSTAKKLWN-NH2)
> 64.7 µM

###

# System: S. aureus (MRSA) USA300
# EXPERIMENTAL DETAILS: microbe, parasite or virus in culture
# Assay type: cell-based, Staphylococcus aureus
# CONDITION NOTES: S. aureus (MRSA) USA300 (R); shown in µM
# Procedure: […] The 46 peptides were serially diluted (128 to 2 μg/mL) in media down polypropylene 96-well plates. […] Plates were incubated at 37 °C for 20 h, and the optical density was determined spectrophotometrically at 600 nm. Minimum inhibition concentrations (MICs) were determined from a minimum of three biological repeats and are reported in μg/mL as well as μM. […]
Where a SMILES comes first, the peptide text is derived from it.
Modal MIC by entry:

INSERT INTO assay_data (compound, measurement_target, endpoint_value) VALUES
  ('CC[C@H](C)[C@H](NC(=O)[C@@H](N)CCCCN)C(=O)N[C@@H](C)C(=O)N[C@@H](CCCCN)C(=O)N[C@H](C(=O)N[C@@H](C)C(=O)N[C@@H](CC(C)C)C(=O)N[C@@H](CCCCN)C(=O)N[C@@H](C)C(=O)N[C@@H](CC(C)C)C(N)=O)C(C)C [DRAMP02273a] (H-KIAKVALKAL-NH2)', 'S. aureus (MRSA) USA300', '> 117.5 µM');

Continue with the compound presented below.
Check the records and state Modal MIC for CC[C@H](C)[C@H](NC(=O)[C@H](CCCCN)NC(=O)[C@H](CC(C)C)NC(=O)[C@H](C)NC(=O)[C@H](C)NC(=O)[C@H](CCCCN)NC(=O)[C@H](CC(C)C)NC(=O)[C@H](C)NC(=O)[C@@H](N)CCCCN)C(=O)NCC(N)=O [CPF-P3-10a] (H-KALKAALKIG-NH2)
> 122 µM
